# experiment: Pharmacokinetic evaluation in CD-1 mice
# applied-conditions: CD-1 mice, oral administration (5 mg/kg)
Assign Bioavailability F to each entry below.
# unit: % | format: bare number

# input Assign Bioavailability F to the following record: O=C(NC[C@H](O)CN1CCc2ccccc2C1)c1cnc2c(c1)NC(=O)C1(CC(F)(F)C1)O2
# output 8.99

# input Assign Bioavailability F to the following record: O=C(NC[C@H](O)CN1CCc2ccccc2C1)c1ccc2c(c1)NC(=O)[C@]1(CCOC1)O2
# output 37.9

# input Assign Bioavailability F to the following record: O=C(NC[C@H](O)CN1CCc2ccccc2C1)c1cnc2c(c1)NC(=O)C1(CC1)C2
# output 20.0

# input Assign Bioavailability F to the following record: O=C(NC[C@H](O)CN1CCc2ccccc2C1)c1ccc2c(c1)NC(=O)C1(CC1)O2
# output 64.2
